assay: Plasma stability, mouse
Quantity measured: Plasma Stability: % remaining after 5 hours

| Compound | Result value |
| --- | --- |
| CN(CC1CCN(CCOc2ccccc2)CC1)C(c1ccc(Cl)cc1)c1ccccn1 (single isomer, unassigned) [Compound 79b] | m100% |
| CC(C)N(CC1CCN(CCOc2ccccc2)CC1)C(c1ccc(Cl)cc1)c1ccccn1 (centres unmarked) | m97% |
| O=C(NC(c1ccc2c(c1)OC(F)(F)O2)c1ccccn1)C1CCN(CCOc2ccccc2)CC1 (single isomer, unassigned) [Compound 119b] | m100% |
| CN(CC1CCN(CCOc2ccccc2F)CC1)C(c1ccc(Cl)cc1)c1ccccn1 (single isomer, unassigned) [Compound 72a] | m100% |

###

The entries below come with measured fraction unbound values attached.
tested on: plasma protein; assay: Plasma protein binding, mouse; type: in vitro ADME; conditions: plasma, read-out: Plasma Protein Binding % bound
Respond with the number and no other words.

| Compound | Result value |
| --- | --- |
| O=C(NC(c1ccc(Cl)cc1)c1ccccn1)C1CCN(CCOc2ccc3cccnc3c2)CC1 (stereo not drawn) | 0.023 |
| O=C(NC(c1ccc(Cl)cc1)c1ccccc1F)C1CCN(CCOc2ccccc2)CC1 (stereo not drawn) | 0.01 |
| O=C(NC(c1ccccc1)c1ccc(Cl)cc1)C1CCN(CCOc2ccccc2)CC1 (stereo not drawn) | 0.02 |

Enquiry: Recorded fraction unbound of O=C(NC(c1ccc(F)cc1)c1ccccn1)C1CCN(CCOc2ccccc2F)CC1 (stereo not drawn) , please.
Return: 0.039

Enquiry: Recorded fraction unbound of O=C(NC(c1cccc(C(F)(F)F)c1)c1ccccn1)C1CCN(CCOc2ccccc2)CC1 (stereo not drawn) , please.
Return: 0.031

Enquiry: Recorded fraction unbound of O=C(NC(c1cccc(Cl)c1)c1ccccn1)C1CCN(CCOc2ccccc2)CC1 (stereo not drawn) , please.
Return: 0.03

###

biological target: human D2R/β-arrestin (Homo sapiens (Human), UniProt P14416); assay: cell-based; details: β-arrestin Antagonist, CHO-K1 cell line expressing human D2R/β-arrestin; quinpirole used as agonist
Sequence (P14416 whole entry): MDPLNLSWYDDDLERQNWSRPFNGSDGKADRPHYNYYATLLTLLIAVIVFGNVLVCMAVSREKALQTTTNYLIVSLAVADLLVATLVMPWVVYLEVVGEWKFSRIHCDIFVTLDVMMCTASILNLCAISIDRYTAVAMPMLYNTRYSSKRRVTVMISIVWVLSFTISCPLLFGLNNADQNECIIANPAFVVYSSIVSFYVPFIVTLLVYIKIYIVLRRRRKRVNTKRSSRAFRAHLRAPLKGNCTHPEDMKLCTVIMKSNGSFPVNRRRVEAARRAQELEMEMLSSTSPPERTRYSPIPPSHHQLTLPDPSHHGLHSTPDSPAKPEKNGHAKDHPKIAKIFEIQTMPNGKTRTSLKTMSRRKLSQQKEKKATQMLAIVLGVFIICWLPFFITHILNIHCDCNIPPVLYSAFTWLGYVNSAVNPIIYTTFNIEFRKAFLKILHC
Quantity measured: IC50

Examples from the recorded data:
| Molecule | IC50 |
| --- | --- |
| Clc1ccc(C(c2ccccn2)N2CCC3(CCN(CCOc4ccccc4)CC3)C2)cc1 (stereo not drawn) [Compound 105] | 100 to 1000 nM |
| FC(F)(F)c1ccccc1OCCN1CCC(CNC(c2ccc(Cl)cc2)c2ccccn2)CC1 (stereo not drawn) [Compound 120] | < 100 nM |
| O=C(NC(c1ccc(F)cc1)c1ccccn1)C1CCN(CCOc2ccccc2C(F)(F)F)CC1 (stereo not drawn) [Compound 52] | < 100 nM |
| Clc1ccc(C(NCC2CCN(CCOc3ccccc3)CC2)c2ccccn2)cc1 (single isomer, unassigned) [Compound 114a] | < 100 nM |
| COc1cccc(C(c2ccccn2)N(C)CC2CCN(CCOc3ccccc3F)CC2)c1 (stereo not drawn) [Compound 77] | 100 to 1000 nM |

With those in mind, consider the next molecule.
Enquiry: Recorded IC50 of CN(C(=O)C1CCN(CCOc2ccccc2)CC1)C(c1ccc(Cl)cc1)c1ccccn1 (stereo not drawn) [Compound 51] , please.
Return: 1000 to 10000 nM
